System: HOP-92 NSCLC
method_summary: NCI tumour cell line growth inhibition, 48 h; in the data active = GI50 below about 0.43 µM; inactive = the rest
Your reply should match one of these outcome classes. y = active, n = inactive

| molecule | assayed_system | cat |
| --- | --- | --- |
| CN(C)CCCNC(=O)c1cc2[nH]c3c(cnc4ccc([N+](=O)[O-])cc43)c(=O)c2n1C | HOP-92 NSCLC | n |
| C=COCCCOc1ccccc1 | HOP-92 NSCLC | n |
| Cn1c2ccccc2c2c3c(c4c5cc(Br)ccc5n(C)c4c21)C(=O)N(O)C3=O | HOP-92 NSCLC | y |

// param item: COc1cc(C2CC(c3cccc(Br)c3)=NN2C(C)=O)cc(OC)c1OC (stereo not given) ; yields the recorded call
n

// param item: `[Cl][Hg][c]1cc(Br)cc(Br)c1` ; yields the recorded call
n

Every entry's value here was drawn from PubChem BioAssay (NCI).
